Molecular target: human progesterone receptor A (Homo sapiens, UniProt P06401)
Construct: expressed in transfected cells; host or cells: SK-N-MC human neuroblastoma cells, stably transfected with pRChPR-A-neo and pMMTV-LUC
Sequence (P06401 1-769 isoform P06401-2): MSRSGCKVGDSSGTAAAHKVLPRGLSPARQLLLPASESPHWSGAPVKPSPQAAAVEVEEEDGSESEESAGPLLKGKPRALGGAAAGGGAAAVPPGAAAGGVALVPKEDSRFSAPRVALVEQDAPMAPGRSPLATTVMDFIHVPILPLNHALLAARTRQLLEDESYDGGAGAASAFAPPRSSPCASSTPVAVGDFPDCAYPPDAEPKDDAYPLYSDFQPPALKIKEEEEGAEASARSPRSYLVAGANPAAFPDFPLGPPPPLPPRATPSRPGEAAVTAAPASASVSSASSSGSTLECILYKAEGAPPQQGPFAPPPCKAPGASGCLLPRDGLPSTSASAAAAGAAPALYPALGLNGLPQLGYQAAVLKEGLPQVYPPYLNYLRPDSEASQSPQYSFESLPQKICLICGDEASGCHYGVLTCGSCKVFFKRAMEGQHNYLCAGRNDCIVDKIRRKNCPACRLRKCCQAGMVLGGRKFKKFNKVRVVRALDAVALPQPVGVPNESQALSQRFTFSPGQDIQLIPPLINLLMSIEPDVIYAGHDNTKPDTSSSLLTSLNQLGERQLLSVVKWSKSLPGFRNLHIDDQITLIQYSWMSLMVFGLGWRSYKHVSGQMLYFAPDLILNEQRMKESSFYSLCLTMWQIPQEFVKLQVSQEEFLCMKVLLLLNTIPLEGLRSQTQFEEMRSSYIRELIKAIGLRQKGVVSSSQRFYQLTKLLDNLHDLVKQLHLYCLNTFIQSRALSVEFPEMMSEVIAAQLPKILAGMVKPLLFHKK
Assay: Progesterone receptor-antagonistic action in stably transfected SK-N-MC cells, PR-A, MMTV-LUC reporter
Assay type: cell-based
Excerpt: Determination of Progesterone Receptor-Antagonistic Action in Stable Transfectants of Human Neuroblastoma Cells (SK-N-MC Cells) with the Human Progesterone a or Progesterone B Receptor and an MN-LUC Reporter Construct […]
Readout type: IC50
Answer as a quantity: numeral, then unit.

Lookup: Need IC50 of COC(=O)C#Cc1ccc([C@H]2C[C@@]3(C)C(CC[C@@]3(O)C(F)(F)C(F)(F)F)C3CCC4=CC(=O)CCC4=C32)cc1 (stereo partly shown) [Example 3] , thanks.
Found: 1.8 nM
